The compounds listed here are annotated with their MIC.
Test system: A. baumannii ATCC 19606
Assay: MIC, broth microdilution
Assay type: cell-based
Details: Acinetobacter baumannii, ATCC19606; A. baumannii ATCC 19606; read-out: Minimum inhibitory concentration A.b.^f

compound | readoutUnit | MIC
C=C[C@]1(C)C[C@@H](OC(=O)CSc2nc3cc[n+](Cc4ccc(F)cc4)cc3[nH]2)[C@]2(C)[C@H](C)CC[C@]3(CCC(=O)[C@H]32)[C@@H](C)[C@@H]1O [Compound c] | µg/mL | 32
C=C[C@]1(C)C[C@@H](OC(=O)CSc2nc3cc[n+](Cc4cc(OC)cc(OC)c4)cc3[nH]2)[C@]2(C)[C@H](C)CC[C@]3(CCC(=O)[C@H]32)[C@@H](C)[C@@H]1O [Compound n] | µg/mL | 64
C=C[C@]1(C)C[C@@H](OC(=O)CSc2nc3cc[n+](Cc4ccc(Br)cc4)cc3[nH]2)[C@]2(C)[C@H](C)CC[C@]3(CCC(=O)[C@H]32)[C@@H](C)[C@@H]1O [Compound a] | µg/mL | 32
C=C[C@]1(C)C[C@@H](OC(=O)CSc2nc3cc[n+](Cc4ccc(C)cc4)cc3[nH]2)[C@]2(C)[C@H](C)CC[C@]3(CCC(=O)[C@H]32)[C@@H](C)[C@@H]1O [Compound i] | µg/mL | 0.25
C=C[C@]1(C)C[C@@H](OC(=O)CSc2nc3cc[n+](Cc4cc(F)c(F)cc4F)cc3[nH]2)[C@]2(C)[C@H](C)CC[C@]3(CCC(=O)[C@H]32)[C@@H](C)[C@@H]1O [Compound g] | µg/mL | 64
C=C[C@]1(C)C[C@@H](OC(=O)CSc2nc3cc[n+](Cc4ccc(C(C)(C)C)cc4)cc3[nH]2)[C@]2(C)[C@H](C)CC[C@]3(CCC(=O)[C@H]32)[C@@H](C)[C@@H]1O [Compound k] | µg/mL | 16
C=C[C@]1(C)C[C@@H](OC(=O)CSc2nc3cc[n+](Cc4ccc([N+](=O)[O-])cc4)cc3[nH]2)[C@]2(C)[C@H](C)CC[C@]3(CCC(=O)[C@H]32)[C@@H](C)[C@@H]1O [Compound f] | µg/mL | 8
C=C[C@]1(C)C[C@@H](OC(=O)CSc2nc3cc[n+](Cc4ccc(OC)cc4)cc3[nH]2)[C@]2(C)[C@H](C)CC[C@]3(CCC(=O)[C@H]32)[C@@H](C)[C@@H]1O [Compound d] | µg/mL | 16
C=C[C@]1(C)C[C@@H](OC(=O)CSc2nc3cc[n+](Cc4cc(C)cc(C)c4)cc3[nH]2)[C@]2(C)[C@H](C)CC[C@]3(CCC(=O)[C@H]32)[C@@H](C)[C@@H]1O [Compound l] | µg/mL | 64
C=C[C@]1(C)C[C@@H](OC(=O)CSc2nc3cc[n+](Cc4cc(F)ccc4C#N)cc3[nH]2)[C@]2(C)[C@H](C)CC[C@]3(CCC(=O)[C@H]32)[C@@H](C)[C@@H]1O [Compound m] | µg/mL | 64

---

The compounds listed here are annotated with their MIC.
System: Methicillin-resistant S. aureus ATCC 33591
Assay: MIC, broth microdilution
Format: cell-based
Conditions: Staphylococcus aureus, ATCC 33591 / MRSA; Methicillin-resistant S. aureus ATCC 33591; read-out: Minimum inhibitory concentration MRSA^b

smilesRepr | MIC / µg/mL
C=C[C@]1(C)C[C@@H](OC(=O)CSc2nc3cc[n+](Cc4cc(F)c(F)cc4F)cc3[nH]2)[C@]2(C)[C@H](C)CC[C@]3(CCC(=O)[C@H]32)[C@@H](C)[C@@H]1O | 128
C=C[C@]1(C)C[C@@H](OC(=O)CSc2nc3cc[n+](Cc4ccc(Br)cc4)cc3[nH]2)[C@]2(C)[C@H](C)CC[C@]3(CCC(=O)[C@H]32)[C@@H](C)[C@@H]1O | 8
C=C[C@]1(C)C[C@@H](OC(=O)CSc2nc3cc[n+](Cc4ccc([N+](=O)[O-])cc4)cc3[nH]2)[C@]2(C)[C@H](C)CC[C@]3(CCC(=O)[C@H]32)[C@@H](C)[C@@H]1O | 8
C=C[C@]1(C)C[C@@H](OC(=O)CSc2nc3cc[n+](Cc4cc(OC)cc(OC)c4)cc3[nH]2)[C@]2(C)[C@H](C)CC[C@]3(CCC(=O)[C@H]32)[C@@H](C)[C@@H]1O | 64
C=C[C@]1(C)C[C@@H](OC(=O)CSc2nc3cc[n+](Cc4cc(C)cc(C)c4)cc3[nH]2)[C@]2(C)[C@H](C)CC[C@]3(CCC(=O)[C@H]32)[C@@H](C)[C@@H]1O | 64
C=C[C@]1(C)C[C@@H](OC(=O)CSc2nc3cc[n+](Cc4ccc(OC)cc4)cc3[nH]2)[C@]2(C)[C@H](C)CC[C@]3(CCC(=O)[C@H]32)[C@@H](C)[C@@H]1O | 16
C=C[C@]1(C)C[C@@H](OC(=O)CSc2nc3cc[n+](Cc4ccc(C(C)(C)C)cc4)cc3[nH]2)[C@]2(C)[C@H](C)CC[C@]3(CCC(=O)[C@H]32)[C@@H](C)[C@@H]1O | 8
C=C[C@]1(C)C[C@@H](OC(=O)CSc2nc3cc[n+](Cc4ccc(C(F)(F)F)cc4)cc3[nH]2)[C@]2(C)[C@H](C)CC[C@]3(CCC(=O)[C@H]32)[C@@H](C)[C@@H]1O | 32
C=C[C@]1(C)C[C@@H](OC(=O)CSc2nc3cc[n+](Cc4ccc(F)cc4)cc3[nH]2)[C@]2(C)[C@H](C)CC[C@]3(CCC(=O)[C@H]32)[C@@H](C)[C@@H]1O | 8
C=C[C@]1(C)C[C@@H](OC(=O)CSc2nc3cc[n+](Cc4ccc(-c5ccccc5)cc4)cc3[nH]2)[C@]2(C)[C@H](C)CC[C@]3(CCC(=O)[C@H]32)[C@@H](C)[C@@H]1O | 32

---

Tested on: A549 Cells
Assay: Cytotoxicity, Cell Counting Kit-8
Assay type: cell-based
Details: human, 24 h
The compounds listed here are annotated with their CC50.
observationType: CC50 (µM)

compound | observationType | measuredNumber
C=C[C@]1(C)C[C@@H](OC(=O)CSC(C)(C)CNC(=O)[C@H](N)C(C)C)[C@]2(C)[C@H](C)CC[C@]3(CCC(=O)[C@H]32)[C@@H](C)[C@@H]1O [Valnemulin, reference compound] | CC50 | 53.7
C=C[C@]1(C)C[C@@H](OC(=O)CS[C@@H]2C[C@H]3CC[C@@H](C2)N3C)[C@]2(C)[C@H](C)CC[C@]3(CCC(=O)[C@H]32)[C@@H](C)[C@@H]1O [Retapamulin, reference compound] | CC50 | 71.5

---

The compounds listed here are annotated with their CC50.
Test system: HepG2 Cells
Assay: Cytotoxicity, Cell Counting Kit-8
Assay type: cell-based
Details: CCK-8, 24 hours incubation; read-out: CC50 HepG2 Cells
observationType: CC50 (µM)

smilesRepr | targetOrTestSystem | readoutUnit | modifier | measuredNumber
C=C[C@]1(C)C[C@@H](OC(=O)CSc2nc3cc[n+](Cc4ccc(C)cc4)cc3[nH]2)[C@]2(C)[C@H](C)CC[C@]3(CCC(=O)[C@H]32)[C@@H](C)[C@@H]1O | HepG2 Cells | µM | > | 100
C=C[C@]1(C)C[C@@H](OC(=O)CSc2nc3cc[n+](Cc4ccc(C#N)cc4)cc3[nH]2)[C@]2(C)[C@H](C)CC[C@]3(CCC(=O)[C@H]32)[C@@H](C)[C@@H]1O | HepG2 Cells | µM | = | 96.3

---

Test system: Methicillin-resistant S. aureus ATCC 33591
Experiment: MIC, broth microdilution
Format: cell-based
Conditions: Staphylococcus aureus, ATCC 33591 / MRSA; Methicillin-resistant S. aureus ATCC 33591; read-out: Minimum inhibitory concentration MRSA^b
observationType: MIC (µg/mL)

smilesRepr | observationType | measuredNumber
C=C[C@]1(C)C[C@@H](OC(=O)CSc2nc3cc[n+](Cc4ccc(C)cc4)cc3[nH]2)[C@]2(C)[C@H](C)CC[C@]3(CCC(=O)[C@H]32)[C@@H](C)[C@@H]1O | MIC | 0.125
C=C[C@]1(C)C[C@@H](OC(=O)CSc2nc3cc[n+](Cc4cc(F)ccc4C#N)cc3[nH]2)[C@]2(C)[C@H](C)CC[C@]3(CCC(=O)[C@H]32)[C@@H](C)[C@@H]1O | MIC | 64
C=C[C@]1(C)C[C@@H](OC(=O)CSc2nc3cc[n+](Cc4ccc(Cl)cc4)cc3[nH]2)[C@]2(C)[C@H](C)CC[C@]3(CCC(=O)[C@H]32)[C@@H](C)[C@@H]1O | MIC | 32

---

Test system: Methicillin-resistant S. epidermidis ATCC 51625
Experiment: MIC, broth microdilution
Assay type: cell-based
Conditions: Staphylococcus epidermidis, ATCC 51625 / MRSE; Methicillin-resistant S. epidermidis ATCC 51625; read-out: Minimum inhibitory concentration MRSE^e

compound | MIC [µg/mL]
C=C[C@]1(C)C[C@@H](OC(=O)CSc2nc3cc[n+](Cc4ccc(OC)cc4)cc3[nH]2)[C@]2(C)[C@H](C)CC[C@]3(CCC(=O)[C@H]32)[C@@H](C)[C@@H]1O [Compound d] | 16
C=C[C@]1(C)C[C@@H](OC(=O)CSc2nc3cc[n+](Cc4ccc(Cl)cc4)cc3[nH]2)[C@]2(C)[C@H](C)CC[C@]3(CCC(=O)[C@H]32)[C@@H](C)[C@@H]1O [Compound e] | 16
C=C[C@]1(C)C[C@@H](OC(=O)CSc2nc3cc[n+](Cc4cc(F)ccc4C#N)cc3[nH]2)[C@]2(C)[C@H](C)CC[C@]3(CCC(=O)[C@H]32)[C@@H](C)[C@@H]1O [Compound m] | 64
